target: UniProt:P00533; assay: Inhibition of EGFR-TK in human MCF7 cells overexpressing EGFR incubated for 18 to 24 hrs by kinase assay; type: cell-based
Experimental endpoint: IC50 (µM)

>  <Molecule>
Clc1ccc(COC(c2cccs2)c2cc3ccccc3nc2Cl)cc1 (configuration not stated)

>  <Experimental endpoint>
IC50

>  <Measurement>
3.66

$$$$
>  <Molecule>
Fc1ccc(COC(c2cccs2)c2cc3ccccc3nc2Cl)cc1 (configuration not stated)

>  <Experimental endpoint>
IC50

>  <Measurement>
2.75

$$$$

----------
target: Epidermal growth factor receptor (Homo sapiens, UniProt P00533); assay: Inhibition of EGFR-TK in human HeLa cells overexpressing EGFR incubated for 18 to 24 hrs by kinase assay; assay type: cell-based
Sequence (P00533 whole entry): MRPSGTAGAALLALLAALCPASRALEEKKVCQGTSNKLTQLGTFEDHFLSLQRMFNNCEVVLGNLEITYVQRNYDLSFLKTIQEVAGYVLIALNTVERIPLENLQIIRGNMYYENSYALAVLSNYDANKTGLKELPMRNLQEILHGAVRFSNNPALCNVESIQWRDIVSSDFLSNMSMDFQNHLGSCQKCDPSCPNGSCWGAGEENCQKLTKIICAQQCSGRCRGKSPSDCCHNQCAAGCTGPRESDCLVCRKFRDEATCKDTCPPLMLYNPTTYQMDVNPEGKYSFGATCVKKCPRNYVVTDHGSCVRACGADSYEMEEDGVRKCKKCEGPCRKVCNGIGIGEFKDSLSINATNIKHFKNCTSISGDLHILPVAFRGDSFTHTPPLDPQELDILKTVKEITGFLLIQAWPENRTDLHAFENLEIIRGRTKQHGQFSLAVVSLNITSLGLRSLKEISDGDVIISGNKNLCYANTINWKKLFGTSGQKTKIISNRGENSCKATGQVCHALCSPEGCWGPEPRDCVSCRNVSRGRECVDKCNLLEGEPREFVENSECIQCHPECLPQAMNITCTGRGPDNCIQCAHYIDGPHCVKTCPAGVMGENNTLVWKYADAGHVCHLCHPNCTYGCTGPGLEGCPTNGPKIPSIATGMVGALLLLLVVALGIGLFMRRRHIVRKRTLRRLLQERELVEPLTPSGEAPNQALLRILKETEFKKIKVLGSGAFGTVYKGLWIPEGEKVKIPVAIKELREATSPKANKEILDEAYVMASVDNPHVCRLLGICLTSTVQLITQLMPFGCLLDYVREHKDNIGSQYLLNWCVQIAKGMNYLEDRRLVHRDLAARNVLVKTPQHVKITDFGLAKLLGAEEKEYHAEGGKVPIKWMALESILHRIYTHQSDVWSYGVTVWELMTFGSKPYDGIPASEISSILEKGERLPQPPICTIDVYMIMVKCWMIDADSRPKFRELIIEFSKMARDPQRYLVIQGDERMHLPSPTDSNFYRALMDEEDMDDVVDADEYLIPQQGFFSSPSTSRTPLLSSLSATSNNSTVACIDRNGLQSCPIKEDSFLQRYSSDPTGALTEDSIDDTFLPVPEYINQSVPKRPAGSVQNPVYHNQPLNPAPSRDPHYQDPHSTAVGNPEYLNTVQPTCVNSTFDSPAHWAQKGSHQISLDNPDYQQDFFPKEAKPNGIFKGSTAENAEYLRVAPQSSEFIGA

>  <Compound>
OC(c1cccs1)c1cc2ccccc2nc1Cl (stereo unspecified)

>  <IC50 (µM)>
6.3

$$$$
